Target: Concanavalin-A (Canavalia ensiformis)
Assay: ConA small-molecule binders, primary screen, artefact control for SMM control protein annotation, biochemical, small-molecule microarray, Alexa647 label, 635 nm (AID 1127);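 note: z combines 667 nm emission intensity with signal-to-noise across three replicate slides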
Details: ConA-A647 binding fluorescence, higher = more signal
Measured Metric: composite z-score

# Compound, Target Desc, Test Result
rows = [
    ("O=C1C2C=CC(C(O)c3cccs3)N(Nc3ccccc3)C2C(=O)N1c1ccccc1 (stereo unspecified)", "Concanavalin-A (Canavalia ensiformis)", 0.0148),
    ("COc1cccc(OC)c1C(=O)O[C@H]1[C@@H]2OC(=O)[C@H](Cc3cccc(Br)c3)C/C=C/C[C@@H](Cc3cccc(Br)c3)C(=O)O[C@H]2[C@@H](OC)O[C@@H]1CO", "Concanavalin-A (Canavalia ensiformis)", 0.293),
    ("CCOC(=O)C[C@H]1[C@H](OC(=O)Cc2ccc3c(c2)OCO3)[C@@H](NC(=O)c2ccccc2)c2cc(OCCCO)ccc2N1C(=O)Cc1ccc(OC)cc1", "Concanavalin-A (Canavalia ensiformis)", 0.808),
    ("CCCCCCc1nc(-c2ccc(OC)nc2)cc2c1[Si](C(C)C)(C(C)C)OC2", "Concanavalin-A (Canavalia ensiformis)", 0.502),
    ("CCOC(=O)C1=CC[C@@H](c2ccccc2)N(S(=O)(=O)c2ccc(C)cc2)[C@H]1C#N", "Concanavalin-A (Canavalia ensiformis)", 1.15),
    ("[N-]=[N+]=NCc1ccccc1C[C@]1(C(=O)NCc2ccccc2)N=C(c2ccc(OCCCO)cc2)O[C@H]1c1ccccc1CN=[N+]=[N-]", "Concanavalin-A (Canavalia ensiformis)", 0.958),
    ("CCc1cccc(NC(=O)O[C@H]2[C@H](OC(=O)Nc3ccc4c(c3)OCO4)[C@H](OC(=O)Nc3ccc4c(c3)OCO4)[C@@H](OC)O[C@@H]2CO)c1", "Concanavalin-A (Canavalia ensiformis)", 1.14),
    ("[N-]=[N+]=NCc1ccccc1C[C@]1(C(=O)N2CCOCC2)N=C(c2ccc(OCCCO)cc2)O[C@H]1c1ccccc1CN=[N+]=[N-]", "Concanavalin-A (Canavalia ensiformis)", 1.14),
    ("COC(=O)[C@@]1(CCS(=O)(=O)c2ccccc2)N=C(c2ccc(OCCCO)cc2)O[C@H]1c1ccccc1N=[N+]=[N-]", "Concanavalin-A (Canavalia ensiformis)", 1.11),
    ("NC(=O)N1C(=O)C2C(C1=O)C1C=C(CCCO)C2C(c2ccc(CN3CCCC3)cc2)N1Cc1cccc(OC(F)(F)F)c1 (stereo unspecified)", "Concanavalin-A (Canavalia ensiformis)", -0.171),
    ("CCCC[C@H]1OB(O)C[C@H]2C1=C(COC)C[C@H]1C(=O)C=CC(=O)[C@H]12", "Concanavalin-A (Canavalia ensiformis)", 0.486),
    ("CCOC(=O)C[C@H]1[C@H](OC(=O)c2ccc(C(=O)c3ccccc3)cc2)[C@@H](NC(=O)c2ccc3ccccc3c2)c2cc(OCCCO)ccc2N1C(=O)c1ccc2ccccc2n1", "Concanavalin-A (Canavalia ensiformis)", 0.707),
    ("CCCCN1CC=CC23O[C@@H]4C=CCOC(=O)[C@@H]4[C@H]2C(=O)N(C(CO)C(C)C)[C@@H]3C1=O (stereo partly specified)", "Concanavalin-A (Canavalia ensiformis)", -0.868),
    ("C=C(CCCC)C(=O)CC[C@H](OC(C)=O)c1ccccc1OCCO", "Concanavalin-A (Canavalia ensiformis)", -0.0099),
    ("O=C1C2C=CC(C(O)C(c3ccccc3)c3ccccc3)N(Nc3ccccc3)C2C(=O)N1c1ccccc1 (stereo unspecified)", "Concanavalin-A (Canavalia ensiformis)", 0.942),
    ("COC(=O)[C@@]1(Cc2ccc(F)cc2)[C@H]2c3cc(C(=O)N(C)C)n(CCn4cc([N+](=O)[O-])nc4C)c3C[C@H]2CN1C(=O)c1ccccc1", "Concanavalin-A (Canavalia ensiformis)", 0.294),
    ("CC(C)N1CC=CC23O[C@@H]4C=CCCOC(=O)C4[C@H]2C(=O)N(CCCCCO)[C@@H]3C1=O (stereo partly specified)", "Concanavalin-A (Canavalia ensiformis)", 0.878),
    ("Cc1ccc(S[C@]2(C(=O)NCCN3CCOCC3)CC(=O)N(C3CCCCC3)[C@@H]2c2ccc(CO)cc2I)cc1", "Concanavalin-A (Canavalia ensiformis)", 1.11),
    ("CC(C)C[C@@H]1NC(=O)[C@@]23C(=O)N[C@@H](Cc4ccccc4)C2[C@H](C)[C@@]2(C)O[C@H]2C3/C=C/C/C=C\\CNC(=O)[C@@H](CC(C)C)NC1=O (stereo partly specified)", "Concanavalin-A (Canavalia ensiformis)", -1.14),
    ("O=C1OCCC=C[C@H]2OC34C=CCN(CCN5CCOCC5)C(=O)[C@H]3N(CCCO)C(=O)[C@@H]4C12 (stereo partly specified)", "Concanavalin-A (Canavalia ensiformis)", -0.112),
    ("C=CCC(OC(C)=O)[C@@H]1[C@@H](N(Cc2ccc(-c3cccc(C(F)(F)F)c3)o2)C(=O)Cc2ccc(F)cc2)c2cc(OCCCO)ccc2N1C(=O)c1ccc2ccccc2c1 (stereo partly specified)", "Concanavalin-A (Canavalia ensiformis)", -1.35),
]

---

composite z-score for assorted molecules
Experiment: binders from COS7 lysate, DM2A8 probe, primary screen, torsin A project, cell lysate, small-molecule microarray, fluorescence 635/667 (AID 1065)
Settings: higher = more signal, COS7 lysate expressing mutant human TOR1A

# Molecule, composite z-score
records = [
    ("COC(=O)[C@@]1(Cc2ccc(F)cc2)[C@H]2c3cc(C(=O)N(C)C)n(CCO)c3C[C@H]2CN1C(=O)c1ccccc1", -0.311),
    ("COC(=O)[C@@]1(CCC(=O)OC(C)(C)C)N=C(c2ccc(OCCCO)cc2)O[C@H]1c1ccccc1CN=[N+]=[N-]", -0.13),
    ("CC(C)CNC(=O)[C@@H]1c2ccccc2C(=O)N(C(C)C)[C@H]1c1ccc(CO)cc1", -0.0466),
    ("C#CCN([C@H](/C=C/C1CC1)[C@@H](O)Cc1ccccc1)[C@@H](Cc1ccccc1)C(=O)OC", -0.134),
    ("COc1ccccc1CN1C(=O)c2ccccc2[C@](Cc2ccccc2I)(C(=O)NCCCN(C)C)[C@@H]1c1ccc(CO)cc1", -0.501),
    ("CCCCC(=C=CC[C@@H](O)c1cccc(OCCO)c1)C[C@@H](O)COCc1ccccc1", -0.323),
    ("COCCCNC(=O)[C@@H]1c2ccccc2C(=O)N(Cc2cc(C(F)(F)F)cc(C(F)(F)F)c2)[C@H]1c1ccc(CO)cc1", 0.668),
    ("COCCOC(=O)N1C(=O)[C@@]2(c3cc(C#CC4(O)CCCCCC4)ccc31)[C@H](c1ccc(OCCO)cc1)N1[C@H](c3ccccc3)[C@H](c3ccccc3)OC(=O)[C@H]1[C@@H]2C(=O)N1CCCCCCC1", 0.437),
    ("CCCCNC(=O)c1ccc(C#C[Si](C)(C)C)c(OC(C)=O)c1", 0.293),
    ("C=CCN1C(=O)[C@]2(O[C@H](CCn3cc([C@H](O)c4ccccc4)nn3)[C@@H]([Si](C)(C)c3ccc(OC)cc3)[C@@H]2C)c2cc(N3C(=O)c4cccc5cccc3c45)ccc21", -0.111),
    ("COC(=O)[C@@]1(Cc2ccc(F)cc2)[C@H]2c3cc(C(=O)N(C)C)n(CCN4CCOCC4)c3C[C@H]2CN1C(=O)c1ccccc1", -0.141),
    ("C=C(COC)/C(=C/C[C@H](OC(=O)c1ccncc1)c1cccc(OCCO)c1)c1cnc2ccccc2c1", 0.544),
    ("COc1ccc(NN2C(C(O)c3ccc(OC)cc3)C=CC3C(=O)N(C4CCCCC4)C(=O)C32)cc1 (centres undefined)", 0.191),
    ("CCOC(=O)C1=C(C(=O)OCC)N(S(=O)(=O)CC[Si](C)(C)C)[C@H](c2ccccc2)CC1", 0.0516),
    ("COc1ccc(CCNC(=O)[C@@]2(C)c3ccccc3C(=O)N(Cc3cc(C(F)(F)F)cc(C(F)(F)F)c3)[C@H]2c2ccc(CO)cc2)cc1", 1.35),
    ("Cc1ccc(F)cc1S(=O)(=O)N[C@@H]1CCN(Cc2ccc3c(c2)OCO3)C1", 0.267),
    ("COCCOC(=O)N1C(=O)[C@@]2(c3ccccc31)[C@H](c1ccc(OCCO)cc1)N1[C@H](c3ccccc3)[C@H](c3ccccc3)OC(=O)[C@H]1[C@@H]2C(=O)N1CCN(c2ncccn2)CC1", 0.751),
    ("COCCOC(=O)N1C(=O)[C@@]2(c3cc(C#CC4=CCCCC4)ccc31)[C@H](c1ccccc1OCCO)N1[C@H](c3ccccc3)[C@H](c3ccccc3)OC(=O)[C@H]1[C@@H]2C(N)=O", 0.599),
    ("CC(=O)n1cc(C(O)C2C=CC3C(=O)N(c4ccccc4)C(=O)C3N2Nc2ccccc2F)c2ccccc21 (centres undefined)", 0.25),
    ("COc1ccc(NN2C(C(O)c3cc(C(F)(F)F)cc(C(F)(F)F)c3)C=CC3C(=O)N(C4CCCCC4)C(=O)C32)cc1 (centres undefined)", 0.301),
    ("COCCOC(=O)N1C(=O)[C@@]2(c3cc(C#CC4=CCCCC4)ccc31)[C@H](C(=O)N1CCc3cc(OC)c(OC)cc3C1)[C@H]1C(=O)O[C@H](c3ccccc3)[C@H](c3ccccc3)N1[C@@H]2c1ccc(O)cc1", 0.271),
    ("CC(C)(C)N1CC=CC23O[C@@H]4/C=C\\CCCOC(=O)C4[C@H]2C(=O)N(CCCCCCO)[C@@H]3C1=O (some centres undefined)", -0.342),
    ("COC(=O)c1c(CC[C@@H](CO)NC(=O)N[C@@H](Cc2ccccc2)Cn2cc(-c3cncn3C)nn2)oc(C(C)=O)c1C(=O)OC", 0.259),
    ("COCCOC(=O)N1C(=O)[C@@]2(c3cc(C#CCNC(N)=O)ccc31)[C@H](C(=O)NC[C@H](O)c1ccccc1)[C@H]1C(=O)O[C@H](c3ccccc3)[C@H](c3ccccc3)N1[C@@H]2c1ccc(OCCO)cc1", 0.249),
]

These measurements were taken from PubChem BioAssay.
